Experiment: Solubility
Type: physicochemical
Details: in dimethyl formamide
Structures can show the parent of a compound that is named as a salt.
Binary classification by solubility in dimethyl formamide, with 20% as an inclusive lower bound for rule met; all other cases are rule not met.

COMPOUND	CATEGORY_LABEL
CN(C(=O)CNC1CCCCC1)c1ccc(Cl)cc1C(=O)c1ccccc1 [Example 11, hydrochloride]	rule not met
CCN(CCO)CC(=O)N(C)c1ccc(Cl)cc1C(=O)c1ccccc1	rule met
C#CC(CC)(CC)NCC(=O)N(C)c1ccc(Cl)cc1C(=O)c1ccccc1 [Example 8, hydrochloride]	rule not met
CN1CCN(CC(=O)N(C)c2ccc(Cl)cc2C(=O)c2ccccc2)CC1	rule not met
C#CC1(NCC(=O)N(C)c2ccc(Cl)cc2C(=O)c2ccccc2)CCCCC1 [Example 9, hydrochloride]	rule not met
CN(C(=O)CNC(C)(C)CO)c1ccc(Cl)cc1C(=O)c1ccccc1	rule met

###

Test: Toxicity test (LD50, Miller and Tainter)
Conditions: mouse, in vivo; oral, mice; read-out: DL50 oral
Where a name gives a salt, the structure may show the parent alone.
MEASURED_PARAMETER: LD50 (mg/kg)

COMPOUND	MODIFIER_SIGN	TEST_VALUE
CN(C(=O)CN(C)C1CCCCC1)c1ccc(Cl)cc1C(=O)c1ccccc1 [Example 20, hydrochloride]	>	1000
C#CC(CC)(CC)NCC(=O)N(C)c1ccc(Cl)cc1C(=O)c1ccccc1 [Example 8, hydrochloride]	=	1000
CN(C(=O)CNC1CCCCC1)c1ccc(Cl)cc1C(=O)c1ccccc1 [Example 11, hydrochloride]	=	1050
CCN(CCO)CC(=O)N(C)c1ccc(Cl)cc1C(=O)c1ccccc1	=	550

###

Test: Toxicity test (LD50, Miller and Tainter)
Conditions: mouse, in vivo; intravenous, mice; read-out: DL50 I.V.
Counter-ions that a name gives are not always drawn.
Measured LD50 accompanies every entry in the list below.

COMPOUND	UNITS_TEXT	LD50
CN(CCO)CC(=O)N(C)c1ccc(Cl)cc1C(=O)c1ccccc1	mg/kg	55
C=C(C)CNCC(=O)N(C)c1ccc(Cl)cc1C(=O)c1ccccc1 [Example 19, hydrochloride]	mg/kg	60
CN(C(=O)CN1CCOCC1)c1ccc(Cl)cc1C(=O)c1ccccc1 [Example 18, hydrochloride]	mg/kg	103
CN(C(=O)CNC1CCCCC1)c1ccc(Cl)cc1C(=O)c1ccccc1 [Example 11, hydrochloride]	mg/kg	50

###

Experiment: Toxicity test (LD50, Miller and Tainter)
Conditions: mouse, in vivo; oral, mice; read-out: DL50 oral
Where a name gives a salt, the structure may show the parent alone.

COMPOUND	UNITS_TEXT	LD50
C#CC1(NCC(=O)N(C)c2ccc(Cl)cc2C(=O)c2ccccc2)CCCCC1 [Example 9, hydrochloride]	mg/kg	560
CN(CCO)CC(=O)N(C)c1ccc(Cl)cc1C(=O)c1ccccc1	mg/kg	1200
CN(C(=O)CN1CCOCC1)c1ccc(Cl)cc1C(=O)c1ccccc1 [Example 18, hydrochloride]	mg/kg	1700

###

Assay: Solubility
Format: physicochemical
Conditions: in dimethyl formamide
Below, each of the compounds is paired with its reported solubility in dimethyl formamide value.

SMILES_DATA	solubility in dimethyl formamide [%]
CN(CCO)CC(=O)N(C)c1ccc(Cl)cc1C(=O)c1ccccc1	20
CN(C)CC(=O)N(C)c1ccc(Cl)cc1C(=O)c1ccccc1	20
CN(C(=O)Cn1ccnc1)c1ccc(Cl)cc1C(=O)c1ccccc1	20
